test: Biodegradability in seawater (OECD 306)
Provide the recorded Biodegradability BOD28 for the entries that follow.

Please report Biodegradability BOD28 for the following compound: OCc1c(F)ccc(F)c1F [2,3,6-TFBOH, 2,3,6-trifluorobenzyl alcohol]
2%

Recall and state the measured Biodegradability BOD28 for OCc1c(F)cc(F)cc1F [2,4,6-TFBOH, 2,4,6-trifluorobenzyl alcohol] .
0-3%

State, in one line, measured Biodegradability BOD28 of OCc1cc(F)cc(F)c1 [3,5-DFBOH, 3,5-difluorobenzyl alcohol]
2%

Tell me Biodegradability BOD28 reported for OCc1ccc(F)cc1 [4-FBOH]
3%

Kindly indicate its recorded Biodegradability BOD28. Item: OCc1c(F)cccc1F [2,6-DFBOH, 2,6-difluorobenzyl alcohol]
0%
